From: PubChem BioAssay (NCI)

Tested on: BT-549 breast
Assay method text: NCI-60 one-dose screen, 48 h (100 = growth as untreated, 0 = no growth, -100 = all killed)
Experimental setup: 10 µM unless noted
The panel holds about 83,000 compounds, 20% with a hit somewhere; the sample as a whole holds those more often.
Reported property: growth (%)

Compound: COc1ccc(C(O)c2cc3c(N)c(C(=O)Nc4cccc(Br)c4C)sc3nc2C)cc1 (stereo not drawn)
Reported property: growth
Observed measurement: 42.3
//
Compound: CCN1C(=O)/C(=c2\sc3n(c2=O)NC2C(N=3)N(CC)C(=O)N2CC)c2ccccc21 (stereo not drawn)
Reported property: growth
Observed measurement: 58.8
//
Compound: O=C(OCc1nc2nc(Cl)nc(N3CCOCC3)c2[nH]1)n1ccnc1
Reported property: growth
Observed measurement: 9.52
//
Compound: OC(c1ccccc1)c1ccccn1 (stereo not drawn)
Reported property: growth
Observed measurement: 93.4
//
Compound: O=C1Nc2c(ccc(Cl)c2Cl)/C1=C/c1ccc(O)cc1
Reported property: growth
Observed measurement: 82.3
//
Compound: Cc1cc(NC(=O)c2cnc(N3CCN(CCOCCOCCOCCOCCC(=O)N[C@H](C(=O)N4C[C@H](O)C[C@H]4C(=O)N[C@@H](C)c4ccc(-c5scnc5C)cc4)C(C)(C)C)CC3)cn2)c2ncccc2c1
Reported property: growth
Observed measurement: -37.3
//
Compound: COc1ccc(Cl)cc1NC(=O)c1c(NC(=O)C(F)(F)C(F)(F)F)sc2c1CCCCC2
Reported property: growth
Observed measurement: -4.71
//
Compound: Clc1nc(Cl)c2ncn(CC3(Cn4cnc5c(Cl)nc(Cl)nc54)COC3)c2n1
Reported property: growth
Observed measurement: -93.2
//
Compound: COc1ccccc1/C=C1\Oc2cc(OCCCN3CCCC3)ccc2C1=O
Reported property: growth
Observed measurement: 94.8
//
Compound: Cc1cc2nc(-c3ccccc3)c(-c3ccccc3)nc2cc1C
Reported property: growth
Observed measurement: 97.5
//
Compound: CCN(CCNc1cc(OC)cc2cccnc12)CCc1ccccc1
Reported property: growth
Observed measurement: 87.6
//
Compound: CCNC(=O)c1[nH]cc(-c2ccc(OC)cc2)c1-c1cc(OC)c(OC)c(OC)c1
Reported property: growth
Observed measurement: 72.5
//
Compound: CCSc1ccc2c(c1)N(CCCN1CCN(C)CC1)c1ccccc1S2
Reported property: growth
Observed measurement: 73.2
//
Compound: Cc1[nH]n(-c2cccc(Cl)c2)c(=O)c1/C=C1\C=Nc2ccc(Br)cc21
Reported property: growth
Observed measurement: 41.5
//
Compound: O=C(Nc1cccc(Cl)c1)c1cc(Cl)ccc1O
Reported property: growth
Observed measurement: -6.47
//
Compound: CC[C@@]12C=CCN3CC[C@]4(c5cc(NC(=O)COc6cc(OCC(=O)Nc7cc8c(cc7OC)N(C)[C@H]7[C@@](O)(C(=O)OC)[C@H](OC(C)=O)[C@]9(CC)C=CCN%10CC[C@]87[C@@H]%109)cc7oc(-c8ccccc8)cc(=O)c67)c(OC)cc5N(C)[C@@H]4[C@](O)(C(=O)OC)[C@H]1OC(C)=O)[C@H]32
Reported property: growth
Observed measurement: 61.4
//
Compound: COc1ccc(/C(C)=N/NC(=O)CSc2nc3ccccc3c(=O)n2Cc2ccc(S(N)(=O)=O)cc2)c(OC)c1
Reported property: growth
Observed measurement: 104
//
Compound: C1=C2CNCC3=Cc4ccc5ccccc5c4OC23Oc2c1ccc1ccccc21
Reported property: growth
Observed measurement: 79.9
//
Compound: OC1(c2ccc(Cl)c(C(F)(F)F)c2)CCN(CCCC(c2ccc(F)cc2)c2ccc(F)cc2)CC1
Reported property: growth
Observed measurement: -92.8
//
Compound: O=C1CCC(NC(=S)Nc2ccccc2)N1 (stereo not drawn)
Reported property: growth
Observed measurement: 114
//
Compound: O=C(OC(OC(=O)c1cc(Cl)cc(Cl)c1)c1cccc2ccccc12)c1ccccc1 (stereo not drawn)
Reported property: growth
Observed measurement: 113
//
Compound: COc1ccc(Nc2nc(N)nc3c2CCc2occc2-3)cc1
Reported property: growth
Observed measurement: 78.3
//
Compound: CCOC(=O)N1CCc2c(sc3nc4nc[nH]n4c(=O)c23)C1
Reported property: growth
Observed measurement: 95.8
//
Compound: O=C(CN1CCOCC1)Nc1ccc2ncnc(Nc3ccc(Oc4cccc(C(F)(F)F)c4)c(Cl)c3)c2c1
Reported property: growth
Observed measurement: 70.1
//
Compound: CN1CCCC1=Nc1ccccc1
Reported property: growth
Observed measurement: 130
//
Compound: C=C(C)[C@@H]1CC[C@]2(C(=O)N3CCN(C)CC3)CC[C@]3(C)[C@H](CC[C@@H]4[C@@]5(C)CCC(=O)C(C)(C)[C@@H]5CC[C@]43C)[C@@H]12
Reported property: growth
Observed measurement: 96.8
//
Compound: COc1cc(NCCCN(CC(C)C)C2CCCC2)c2ncccc2c1
Reported property: growth
Observed measurement: 75.6
//
Compound: COc1c(Cl)cc(Cl)c2ccc(C=C3C(=O)NC(=S)NC3=O)nc12
Reported property: growth
Observed measurement: 90.2
//
Compound: CC1=CC[C@@H]2CC[C@]3(C)[C@H](CC[C@@H]4[C@@]5(C)CCCNC(C)(C)[C@@H]5CC[C@]43C)[C@H]2[C@@H]1C
Reported property: growth
Observed measurement: 97.1
//
Compound: COc1cc(COC(=O)CCCCC[P+](c2ccccc2)(c2ccccc2)c2ccccc2)c(OC)c2c1OCO2
Reported property: growth
Observed measurement: 55.5
//
Compound: Cc1cccc(Oc2ccc(Nc3ncnc4ccc(NC(=O)CN(C)C)cc34)cc2Cl)c1
Reported property: growth
Observed measurement: 72.9
//
Compound: COc1cc(Nc2cc(O)c3c(=O)cc(-c4ccccc4)oc3c2)cc(OC)c1
Reported property: growth
Observed measurement: 80.2
//
Compound: Nc1c(Cl)cc([N+](=O)[O-])cc1Br
Reported property: growth
Observed measurement: 97.5
//
Compound: COc1cc(NCCCN(CC(C)C)CC(C)C)c2ncccc2c1
Reported property: growth
Observed measurement: 80.4
//
Compound: O=C(Nc1ccc2ncnc(Nc3ccc(Oc4cccc(F)c4)c(Cl)c3)c2c1)c1ccc(CN2CCOCC2)cc1
Reported property: growth
Observed measurement: 19.9
//
Compound: CCCCCOc1ccc(/C=N/Nc2cc(C)nc3ccc(Br)cc23)cc1
Reported property: growth
Observed measurement: 103
//
Compound: O=C(NNc1nc(Cl)nc(N2CCN(C(c3ccccc3)c3ccccc3)CC2)n1)c1ccccc1
Reported property: growth
Observed measurement: 7.6
//
Compound: CN1C(=O)N(C)[C@H]2NC(NN)=N[C@H]21
Reported property: growth
Observed measurement: 101
